# testedSystem: Heat shock factor protein 1 (Homo sapiens) (UniProt Q00613)
# testDetails: Activation of HSF1 in human NCI-H460 cells assessed as upregulation of HSP25 protein levels at 10 to 30 uM after 12 hrs by Western blot analysis
# Format: cell-based
Active and inactive are the calls of the source. The calls are words filed in the database; no cut-off is given here.
observable: Activity

| molecule | testedSystem | measuredResult |
| --- | --- | --- |
| COc1cc(/C=C/C=O)ccc1O [CONIFERYL ALDEHYDE] | Heat shock factor protein 1 (Homo sapiens) (UniProt Q00613) | Active |
| COc1cc(CCCO)ccc1O | Heat shock factor protein 1 (Homo sapiens) (UniProt Q00613) | inactive |
| COc1cc(CCC=O)ccc1O | Heat shock factor protein 1 (Homo sapiens) (UniProt Q00613) | inactive |
| COc1cc(/C=C/CO)ccc1O [CONIFERYL ALCOHOL] | Heat shock factor protein 1 (Homo sapiens) (UniProt Q00613) | Active |

---

# testedSystem: UniProt Q00613
# testDetails: Activation of HSF1 in human NCI-H460 cells expressing pGL4-hsp25 construct assessed as upregulation of hsp25 promoter activity at 10 to 30 uM after 12 hrs by luciferase reporter gene assay
# Type: cell-based
Calls of active or inactive are those of the source. The rule behind the calls is not given here.
observable: Activity

| molecule | testedSystem | measuredResult |
| --- | --- | --- |
| COc1cc(CCC=O)ccc1O | UniProt Q00613 | inactive |
| COc1cc(CCCO)ccc1O | UniProt Q00613 | inactive |
| COc1cc(/C=C/C=O)ccc1O [CONIFERYL ALDEHYDE] | UniProt Q00613 | Active |
| COc1cc(/C=C/CO)ccc1O [CONIFERYL ALCOHOL] | UniProt Q00613 | Active |

---

# testedSystem: Heat shock factor protein 1 (Homo sapiens) (UniProt Q00613)
# Sequence (whole entry): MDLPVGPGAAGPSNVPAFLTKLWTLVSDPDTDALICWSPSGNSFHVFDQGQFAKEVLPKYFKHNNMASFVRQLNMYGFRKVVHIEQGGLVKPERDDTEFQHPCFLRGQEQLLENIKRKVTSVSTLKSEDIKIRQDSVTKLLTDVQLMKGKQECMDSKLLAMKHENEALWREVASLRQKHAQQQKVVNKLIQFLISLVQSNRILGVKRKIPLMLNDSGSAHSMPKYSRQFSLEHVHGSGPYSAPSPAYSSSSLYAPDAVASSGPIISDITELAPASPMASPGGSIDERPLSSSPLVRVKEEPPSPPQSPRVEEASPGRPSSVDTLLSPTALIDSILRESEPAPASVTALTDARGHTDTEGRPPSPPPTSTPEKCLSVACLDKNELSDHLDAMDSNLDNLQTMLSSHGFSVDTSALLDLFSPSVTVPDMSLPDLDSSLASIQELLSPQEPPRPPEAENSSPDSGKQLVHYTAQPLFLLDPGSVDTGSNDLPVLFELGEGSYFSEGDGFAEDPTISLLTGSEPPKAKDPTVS
# testDetails: Activation of HSF1 in human NCI-H460 cells assessed as upregulation of HSP70 protein levels at 10 to 30 uM after 12 hrs by Western blot analysis
# Assay type: cell-based
The source made the active and inactive calls. No cut-off for these calls is given here.
Labels: 1 for active, -1 for inactive

| compound | assignedLabel |
| --- | --- |
| COc1cc(CCCO)ccc1O | -1 |
| COc1cc(/C=C/CO)ccc1O | 1 |
| COc1cc(CCC=O)ccc1O | -1 |
| COc1cc(/C=C/C=O)ccc1O | 1 |

Where do the numbers come from? From ChEMBL document CHEMBL4190282.
